Experiment: Pharmacokinetics assay in male CD-1 mice (plasma, LC-MS/MS, non-compartmental analysis)
Assay type: in vivo
Details: male, CD-1, mouse, plasma, po, 10 mg/kg, PO 10.0 mg/kg, 6.00 h, mean
resultType: concentration at 6 h (ng/mL)
# number only, unit ng/mL dropped from output

Consider COc1cc(OC)cc(N(CCNC(C)C)c2ccc3nnc(-c4cnn(C)c4)cc3c2)c1 [Example 1] . Its measured concentration at 6 h is 10.7

====

Test: Pharmacokinetics assay in male CD-1 mice (plasma, LC-MS/MS, non-compartmental analysis)
Format: in vivo
Settings: male, CD-1, mouse, plasma, iv, 1 mg/kg, IV 1.00 mg/kg, 4.00 h, individual mice M7-M9
resultType: concentration at 4 h (ng/mL)
# number only, unit ng/mL dropped from output

Consider COc1cc(OC)cc(N(CCNC(C)C)c2ccc3nnc(-c4cnn(C)c4)cc3c2)c1 . Its measured concentration at 4 h is 3.72

====

Assay: Pharmacokinetics assay in male CD-1 mice (plasma, LC-MS/MS, non-compartmental analysis)
Type: in vivo
Conditions: male, CD-1, mouse, plasma, iv, 1 mg/kg, IV 1.00 mg/kg, 299 s, mean
resultType: concentration at 0.083 h (ng/mL)
# number only, unit ng/mL dropped from output

Consider COc1cc(OC)cc(N(CCNC(C)C)c2ccc3nnc(-c4cnn(C)c4)cc3c2)c1 . Its measured concentration at 0.083 h is 360

====

Assay: Pharmacokinetics assay in male CD-1 mice (plasma, LC-MS/MS, non-compartmental analysis)
Assay type: in vivo
Conditions: male, CD-1, mouse, plasma, po, 10 mg/kg, PO 10.0 mg/kg, mean, read-out: Cmax
resultType: Cmax (ng/mL)
# number only, unit ng/mL dropped from output

Consider COc1cc(OC)cc(N(CCNC(C)C)c2ccc3nnc(-c4cnn(C)c4)cc3c2)c1 . Its measured Cmax is 147

====

Experiment: Pharmacokinetics assay in male CD-1 mice (plasma, LC-MS/MS, non-compartmental analysis)
Type: in vivo
Settings: male, CD-1, mouse, plasma, po, 10 mg/kg, PO 10.0 mg/kg, 8.00 h, mean
resultType: concentration at 8 h (ng/mL)
# number only, unit ng/mL dropped from output

Consider COc1cc(OC)cc(N(CCNC(C)C)c2ccc3nnc(-c4cnn(C)c4)cc3c2)c1 [Example 1] . Its measured concentration at 8 h is 6.6

====

Experiment: Pharmacokinetics assay in male CD-1 mice (plasma, LC-MS/MS, non-compartmental analysis)
Type: in vivo
Settings: male, CD-1, mouse, plasma, iv, 1 mg/kg, IV 1.00 mg/kg, 1.00 h, mean
resultType: concentration at 1 h (ng/mL)
# number only, unit ng/mL dropped from output

Consider COc1cc(OC)cc(N(CCNC(C)C)c2ccc3nnc(-c4cnn(C)c4)cc3c2)c1 . Its measured concentration at 1 h is 57.9

====

Target: UniProt:P11362
Sequence (P11362 22-822): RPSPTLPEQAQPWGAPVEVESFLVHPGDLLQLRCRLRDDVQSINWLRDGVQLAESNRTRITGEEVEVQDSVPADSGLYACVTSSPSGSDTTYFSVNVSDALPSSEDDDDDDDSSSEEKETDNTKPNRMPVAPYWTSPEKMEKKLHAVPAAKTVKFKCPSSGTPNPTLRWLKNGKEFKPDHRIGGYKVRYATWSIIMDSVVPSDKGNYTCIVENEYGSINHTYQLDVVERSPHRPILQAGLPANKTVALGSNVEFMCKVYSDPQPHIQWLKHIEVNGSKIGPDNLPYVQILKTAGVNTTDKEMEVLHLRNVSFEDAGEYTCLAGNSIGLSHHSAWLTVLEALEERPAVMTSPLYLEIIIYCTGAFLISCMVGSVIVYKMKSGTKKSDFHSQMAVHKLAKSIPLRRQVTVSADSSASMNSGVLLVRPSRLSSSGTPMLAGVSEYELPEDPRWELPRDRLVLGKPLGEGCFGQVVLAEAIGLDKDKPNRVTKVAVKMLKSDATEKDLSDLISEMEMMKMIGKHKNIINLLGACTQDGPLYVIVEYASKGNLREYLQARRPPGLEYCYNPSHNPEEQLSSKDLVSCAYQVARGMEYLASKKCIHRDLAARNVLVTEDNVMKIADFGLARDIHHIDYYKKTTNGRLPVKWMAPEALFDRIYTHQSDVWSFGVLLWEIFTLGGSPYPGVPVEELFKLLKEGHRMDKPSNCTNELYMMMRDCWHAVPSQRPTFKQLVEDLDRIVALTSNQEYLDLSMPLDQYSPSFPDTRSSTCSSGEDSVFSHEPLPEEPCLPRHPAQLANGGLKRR
Test: RBC HotSpot Kinase Assay (33P-ATP filter-binding)
Type: biochemical
Conditions: 10 μM ATP
resultType: IC50 (nM)
# number only, unit nM dropped from output

Consider COc1cc(OC)cc(N(CCNC(C)C)c2ccc3nnc(-c4cnn(C)c4)cc3c2)c1 [Example 1] . Its measured IC50 is 7.3

====

Test: Pharmacokinetics assay in male CD-1 mice (plasma, LC-MS/MS, non-compartmental analysis)
Assay type: in vivo
Settings: male, CD-1, mouse, plasma, po, 10 mg/kg, PO 10.0 mg/kg, mean, read-out: MRT0-inf
resultType: MRT inf (h)
# number only, unit h dropped from output

Consider COc1cc(OC)cc(N(CCNC(C)C)c2ccc3nnc(-c4cnn(C)c4)cc3c2)c1 . Its measured MRT inf is 9.81

====

Test: Pharmacokinetics assay in male CD-1 mice (plasma, LC-MS/MS, non-compartmental analysis)
Assay type: in vivo
Settings: male, CD-1, mouse, plasma, iv, 1 mg/kg, IV 1.00 mg/kg, mean
resultType: AUC(0-t) (µg·h/mL)
# number only, unit µg·h/mL dropped from output

Consider COc1cc(OC)cc(N(CCNC(C)C)c2ccc3nnc(-c4cnn(C)c4)cc3c2)c1 . Its measured AUC(0-t) is 0.239

====

Assay: Pharmacokinetics assay in male CD-1 mice (plasma, LC-MS/MS, non-compartmental analysis)
Type: in vivo
Conditions: male, CD-1, mouse, plasma, po, 10 mg/kg, PO 10.0 mg/kg, 4.00 h, mean
resultType: concentration at 4 h (ng/mL)
# number only, unit ng/mL dropped from output

Consider COc1cc(OC)cc(N(CCNC(C)C)c2ccc3nnc(-c4cnn(C)c4)cc3c2)c1 . Its measured concentration at 4 h is 15

====

Assay: Pharmacokinetics assay in male CD-1 mice (plasma, LC-MS/MS, non-compartmental analysis)
Assay type: in vivo
Conditions: male, CD-1, mouse, plasma, iv, 1 mg/kg, IV 1.00 mg/kg, mean, read-out: AUC0-inf
resultType: AUC0-inf (ng·h/mL)
# number only, unit ng·h/mL dropped from output

Consider COc1cc(OC)cc(N(CCNC(C)C)c2ccc3nnc(-c4cnn(C)c4)cc3c2)c1 . Its measured AUC0-inf is 243

====

Experiment: Pharmacokinetics assay in male CD-1 mice (plasma, LC-MS/MS, non-compartmental analysis)
Assay type: in vivo
Conditions: male, CD-1, mouse, plasma, iv, 1 mg/kg, IV 1.00 mg/kg, 8.00 h, individual mice M7-M9
resultType: concentration at 8 h

Consider COc1cc(OC)cc(N(CCNC(C)C)c2ccc3nnc(-c4cnn(C)c4)cc3c2)c1 . Its measured concentration at 8 h is 1.65 ng/mL

====

Experiment: Pharmacokinetics assay in male CD-1 mice (plasma, LC-MS/MS, non-compartmental analysis)
Assay type: in vivo
Conditions: male, CD-1, mouse, plasma, iv, 1 mg/kg, IV 1.00 mg/kg, mean, read-out: C0
resultType: C0 (ng/mL)
# number only, unit ng/mL dropped from output

Consider COc1cc(OC)cc(N(CCNC(C)C)c2ccc3nnc(-c4cnn(C)c4)cc3c2)c1 . Its measured C0 is 472

====

Test: Pharmacokinetics assay in male CD-1 mice (plasma, LC-MS/MS, non-compartmental analysis)
Format: in vivo
Details: male, CD-1, mouse, plasma, iv, 1 mg/kg, IV 1.00 mg/kg, 2.00 h, mean
resultType: concentration at 2 h (ng/mL)
# number only, unit ng/mL dropped from output

Consider COc1cc(OC)cc(N(CCNC(C)C)c2ccc3nnc(-c4cnn(C)c4)cc3c2)c1 . Its measured concentration at 2 h is 14

====

Experiment: Pharmacokinetics assay in male CD-1 mice (plasma, LC-MS/MS, non-compartmental analysis)
Assay type: in vivo
Conditions: male, CD-1, mouse, plasma, po, 10 mg/kg, PO 10.0 mg/kg, 1.00 h, mean
resultType: concentration at 1 h (ng/mL)
# number only, unit ng/mL dropped from output

Consider COc1cc(OC)cc(N(CCNC(C)C)c2ccc3nnc(-c4cnn(C)c4)cc3c2)c1 . Its measured concentration at 1 h is 89.8

====

Assay: Pharmacokinetics assay in male CD-1 mice (plasma, LC-MS/MS, non-compartmental analysis)
Type: in vivo
Settings: male, CD-1, mouse, plasma, iv, 1 mg/kg, IV 1.00 mg/kg, 24.0 h, individual mice M7-M9
resultType: concentration at 24 h (ng/mL)
# number only, unit ng/mL dropped from output

Consider COc1cc(OC)cc(N(CCNC(C)C)c2ccc3nnc(-c4cnn(C)c4)cc3c2)c1 . Its measured concentration at 24 h is 1.36

====

Experiment: Pharmacokinetics assay in male CD-1 mice (plasma, LC-MS/MS, non-compartmental analysis)
Format: in vivo
Settings: male, CD-1, mouse, plasma, iv, 1 mg/kg, IV 1.00 mg/kg, mean, read-out: Vdss
resultType: Vd (L/kg)
# number only, unit L/kg dropped from output

Consider COc1cc(OC)cc(N(CCNC(C)C)c2ccc3nnc(-c4cnn(C)c4)cc3c2)c1 . Its measured Vd is 12.8

====

Assay: Pharmacokinetics assay in male CD-1 mice (plasma, LC-MS/MS, non-compartmental analysis)
Type: in vivo
Conditions: male, CD-1, mouse, plasma, iv, 1 mg/kg, IV 1.00 mg/kg, individual mice M7-M9
Protocol: Pharmacokinetics Assay. A pharmacokinetics assay of Example 1 was performed by WuXi AppTec Inc., 6 Cedarbrook Drive, Cranbury, NJ 08512 USA. This study was conducted in 6 to 8-week-old male CD-1 mice (Hilltop Laboratories). Animals were group housed during acclimation and throughout the study. […] Temperature, relative humidity, and lighting were monitored by PointView Environmental Monitoring System. […] The diet lot number and specifications were recorded in study notebook and archived at WuXi AppTec. […]
resultType: AUC(0-t) (ng·h/mL)
# number only, unit ng·h/mL dropped from output

Consider COc1cc(OC)cc(N(CCNC(C)C)c2ccc3nnc(-c4cnn(C)c4)cc3c2)c1 . Its measured AUC(0-t) is 226

====

Test: Pharmacokinetics assay in male CD-1 mice (plasma, LC-MS/MS, non-compartmental analysis)
Type: in vivo
Details: male, CD-1, mouse, plasma, po, 10 mg/kg, PO 10.0 mg/kg, 0.500 h, mean
Method: Pharmacokinetics Assay. A pharmacokinetics assay of Example 1 was performed by WuXi AppTec Inc., 6 Cedarbrook Drive, Cranbury, NJ 08512 USA. This study was conducted in 6 to 8-week-old male CD-1 mice (Hilltop Laboratories). Animals were group housed during acclimation and throughout the study. […] Temperature, relative humidity, and lighting were monitored by PointView Environmental Monitoring System. […] The diet lot number and specifications were recorded in study notebook and archived at WuXi AppTec. […]
resultType: concentration at 0.5 h (ng/mL)
# number only, unit ng/mL dropped from output

Consider COc1cc(OC)cc(N(CCNC(C)C)c2ccc3nnc(-c4cnn(C)c4)cc3c2)c1 . Its measured concentration at 0.5 h is 147
